# Test system: Salmonella enteritidis
# assayMethodText: Stimulation of innate immunity against Salmonella Enteritidis
# conditionLabel: liposomal, 20 nmol per dose p.o. 72 and 24 h before infection (LD50); 5 mice
readoutName: Day 12 Liver: clear/infected/dead

Example entries begin here.
- compound: "CCCCCCCCCCCCCCCCCC(=O)NCCCC[C@H](NC(=O)CC[C@@H](NC(=O)[C@H](CC)NC(=O)CO[C@H]1[C@H](O)[C@@H](CO)OC(O)[C@@H]1NC(C)=O)C(N)=O)C(=O)O (stereo partly drawn)"
  systemName: "Salmonella enteritidis"
  result: "1/4/0"
- compound: "CCCCCCCCCCCCCCC(CCCCCCCCCCCCCC)C(=O)NCCCC[C@H](NC(=O)CC[C@@H](NC(=O)[C@H](CC)NC(=O)CO[C@H]1[C@H](O)[C@@H](CO)OC(O)[C@@H]1NC(C)=O)C(N)=O)C(=O)O (stereo partly drawn)"
  systemName: "Salmonella enteritidis"
  result: "1/3/1"

(Q) Note Day 12 Liver: clear/infected/dead for the compound shown: CCCCCCCCCCCCCCC(CCCCCCCCCCCCCC)C(=O)OC[C@H]1OC(O)[C@H](NC(C)=O)[C@@H](OCC(=O)N[C@@H](CC)C(=O)N[C@H](CCC(=O)O)C(N)=O)[C@@H]1O (stereo partly drawn)
(A) 4/0/1

###

# System: myelin basic protein induced EAE
# assayMethodText: Experimental allergic encephalomyelitis (EAE), Th1 adjuvant activity
# Format: in vivo, guinea pigs
# conditionLabel: 50 μg myelin basic protein + 1 mg test compound in FIA, footpads, up to day 21; FCA positive control
Form field: Positive animals (%) (incidence of EAE) (one value per entry).
Record the value in %, omitting the unit from your answer.

- compound: "CCCCCCCCCCCCCCCCCC(=O)N[C@H]1[C@H](O[C@H]2[C@H](OCC(=O)N[C@@H](CC)C(=O)N[C@H](CCC(=O)O)C(N)=O)[C@@H](NC(C)=O)C(O)O[C@@H]2CO)O[C@H](CO)[C@@H](O)[C@@H]1O (stereo partly shown)"
  systemName: "myelin basic protein induced EAE"
  Positive animals (%) (incidence of EAE): 86
- compound: "CC[C@H](NC(=O)CO[C@H]1[C@H](O[C@@H]2O[C@H](CO)[C@@H](O)[C@H](O)[C@H]2NC(C)=O)[C@@H](CO)OC(O)[C@@H]1NC(C)=O)C(=O)N[C@H](CCC(=O)O)C(N)=O (stereo partly shown)"
  systemName: "myelin basic protein induced EAE"
  Positive animals (%) (incidence of EAE): 90
- compound: "CC(=O)N[C@@H]1[C@@H](O[C@H](C)C(=O)N[C@@H](C)C(=O)N[C@H](CCC(=O)O)C(N)=O)[C@H](O)[C@@H](CO)O[C@H]1O [MDP, muramyldipeptide]"
  systemName: "myelin basic protein induced EAE"
  Positive animals (%) (incidence of EAE): 58

(Q) Kindly indicate its recorded Positive animals (%) (incidence of EAE). Item: CC(=O)N[C@H]1[C@H](O[C@H]2[C@H](O[C@H](C)C(=O)N[C@@H](C)C(=O)N[C@H](CCC(=O)O)C(N)=O)[C@@H](NC(C)=O)C(O)O[C@@H]2CO)O[C@H](CO)[C@@H](O)[C@@H]1O (stereo partly shown) [GMDP, glucosaminylmuramyl dipeptide]
(A) 65

###

Each entry below carries its recorded +ΔTmax (Sum of ΔTmax).
# conditionLabel: rabbits, liposomal preparations s.c. 100 nmol/kg, 3 rabbits per group; passes if below 1.1° C.
Unit °C implied. Number only.

Some entries whose results are on file:
- molecule: "CCCCCCCCCCCCCCCCCC(=O)N[C@H]1[C@H](O[C@H]2[C@H](OCC(=O)N[C@@H](CC)C(=O)N[C@H](CCC(=O)O)C(N)=O)[C@@H](NC(C)=O)C(O)O[C@@H]2CO)O[C@H](CO)[C@@H](O)[C@@H]1O (stereo partly shown)"
  unitOfMeasurement: "°C"
  +ΔTmax (Sum of ΔTmax): 0.7
- molecule: "CCCCCCCCCCCCCCCCCC(=O)NCCCC[C@H](NC(=O)CC[C@@H](NC(=O)[C@H](CC)NC(=O)CO[C@H]1[C@H](O[C@@H]2O[C@H](CO)[C@@H](O)[C@H](O)[C@H]2NC(C)=O)[C@@H](CO)OC(O)[C@@H]1NC(C)=O)C(N)=O)C(=O)O (stereo partly shown)"
  unitOfMeasurement: "°C"
  +ΔTmax (Sum of ΔTmax): 0.6
- molecule: "CCCCCCCCCCCCCCC(CCCCCCCCCCCCCC)C(=O)N[C@H]1[C@H](O[C@H]2[C@H](OCC(=O)N[C@@H](CC)C(=O)N[C@H](CCC(=O)O)C(N)=O)[C@@H](NC(C)=O)C(O)O[C@@H]2CO)O[C@H](CO)[C@@H](O)[C@@H]1O (stereo partly shown)"
  unitOfMeasurement: "°C"
  +ΔTmax (Sum of ΔTmax): 0.7
- molecule: "CCCCCCCCCCCCCCC(CCCCCCCCCCCCCC)C(=O)NCCCC[C@H](NC(=O)CC[C@@H](NC(=O)[C@H](CC)NC(=O)CO[C@H]1[C@H](O[C@@H]2O[C@H](CO)[C@@H](O)[C@H](O)[C@H]2NC(C)=O)[C@@H](CO)OC(O)[C@@H]1NC(C)=O)C(N)=O)C(=O)O (stereo partly shown)"
  unitOfMeasurement: "°C"
  +ΔTmax (Sum of ΔTmax): 0.8
- molecule: "CCCCCCCCCCCCCCC(CCCCCCCCCCCCCC)C(=O)OC[C@H]1OC(O)[C@H](NC(C)=O)[C@@H](OCC(=O)N[C@@H](CC)C(=O)N[C@H](CCC(=O)O)C(N)=O)[C@@H]1O (stereo partly shown)"
  unitOfMeasurement: "°C"
  +ΔTmax (Sum of ΔTmax): 0.5
- molecule: "CCCCCCCCCCCCCCC(CCCCCCCCCCCCCC)C(=O)NCCCC[C@H](NC(=O)CC[C@@H](NC(=O)[C@H](CC)NC(=O)CO[C@H]1[C@H](O)[C@@H](CO)OC(O)[C@@H]1NC(C)=O)C(N)=O)C(=O)O (stereo partly shown)"
  unitOfMeasurement: "°C"
  +ΔTmax (Sum of ΔTmax): 0.4

(Q) Given CCCCCCCCCCCCCCCCCC(=O)NCCCC[C@H](NC(=O)CC[C@@H](NC(=O)[C@H](CC)NC(=O)CO[C@H]1[C@H](O)[C@@H](CO)OC(O)[C@@H]1NC(C)=O)C(N)=O)C(=O)O (stereo partly shown) , respond with its +ΔTmax (Sum of ΔTmax).
(A) 0.5
